assay text: self-splicing fitness, log relative to wild type (ln ratio); higher = more splicing; Tetrahymena group I intron in knt gene, E. coli kanamycin selection, DiMSum; sequences stand for … in CUCUCU…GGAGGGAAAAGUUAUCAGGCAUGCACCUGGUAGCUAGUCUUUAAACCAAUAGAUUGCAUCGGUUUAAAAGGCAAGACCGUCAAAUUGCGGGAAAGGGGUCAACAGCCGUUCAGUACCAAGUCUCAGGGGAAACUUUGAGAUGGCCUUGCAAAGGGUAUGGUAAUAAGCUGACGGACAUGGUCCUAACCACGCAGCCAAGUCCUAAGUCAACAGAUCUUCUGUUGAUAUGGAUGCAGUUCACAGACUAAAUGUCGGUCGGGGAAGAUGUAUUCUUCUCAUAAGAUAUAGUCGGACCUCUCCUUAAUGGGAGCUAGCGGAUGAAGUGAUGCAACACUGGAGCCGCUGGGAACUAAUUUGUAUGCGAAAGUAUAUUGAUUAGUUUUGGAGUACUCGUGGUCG;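 further: selection with 25 µg/mL kanamycin versus none on LB agar overnight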
protocol conditions: 37 °C
Binary call on self-splicing fitness (ln): t from -1 upward, f beneath that.

Use the examples below as a reference point.
>>> print(df.to_string())
     construct_sequence  group
0  UACGAGCAAUAUUACGGGUC      f
1  AACCAGCAAUAUUACGGAGA      f
2  GCCGAGCAAUAUUACGUCAG      f

Task: // inclusive: self-splicing fitness (ln) at least -1? input: `GGGUAGCAAUAUUACGUGAU`
Result: t

Task: Continue with `CGUUAGCAAUAUUACGGCCG`
Result: t

Task: Continue with `GGGAAGCAAUAUUACGACAC`
Result: t

Task: Continue with `GGGUAGCAAUAUUACGCACU`
Result: t

Task: Continue with `CUUGAGCAAUAUUACGUAUC`
Result: f

Task: Continue with `GCCGAGCAAUAUUACGGUGC`
Result: f

###

assay text: self-splicing fitness, log relative to wild type (ln ratio); higher = more splicing; Tetrahymena group I intron in knt gene, E. coli kanamycin selection, DiMSum; sequences stand for … in CUCUCU…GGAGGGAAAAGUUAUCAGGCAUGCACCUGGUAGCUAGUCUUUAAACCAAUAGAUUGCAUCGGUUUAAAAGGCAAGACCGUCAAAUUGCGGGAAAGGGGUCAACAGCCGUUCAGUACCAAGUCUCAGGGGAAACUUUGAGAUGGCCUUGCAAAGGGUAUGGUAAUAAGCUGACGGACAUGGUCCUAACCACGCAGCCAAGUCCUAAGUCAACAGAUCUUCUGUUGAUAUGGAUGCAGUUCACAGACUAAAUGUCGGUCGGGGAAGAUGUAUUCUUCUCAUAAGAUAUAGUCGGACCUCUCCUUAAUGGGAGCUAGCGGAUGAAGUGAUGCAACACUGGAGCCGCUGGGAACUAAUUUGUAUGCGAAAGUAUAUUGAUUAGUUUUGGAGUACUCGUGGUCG
protocol conditions: 30 °C
The reader will find reported self-splicing fitness (ln) values listed item by item below.
Would you mind answering with just the numeric figure?

>>> df
     construct_sequence             measured_metric  recorded_result
0  ACCCAGCAAUAUUACGCAAU  self-splicing fitness (ln)           -0.941

Task: Which self-splicing fitness (ln) value belongs to `GUCCAGCAAUAUUACGCGGA` ?
Result: -3.96

Task: Continue with `UUUCAGCAAUAUUACGACCU`
Result: -1.28

Task: Continue with `AGUUAGCAAUAUUACGAUCG`
Result: -0.446

Task: Continue with `UGUCAGCAAUAUUACGACUG`
Result: -0.284

Task: Continue with `GCAUAGCAAUAUUACGUGGC`
Result: -2.72

Task: Continue with `CGUUAGCAAUAUUACGUACC`
Result: -1.39

Task: Continue with `ACCUAGCAAUAUUACGAACA`
Result: -2.24
